Target: T1, full-length human OX40 expressed on HuT78 cells (HuT78/OX40) (human, UniProt P43489 29-277)
T1 sequence: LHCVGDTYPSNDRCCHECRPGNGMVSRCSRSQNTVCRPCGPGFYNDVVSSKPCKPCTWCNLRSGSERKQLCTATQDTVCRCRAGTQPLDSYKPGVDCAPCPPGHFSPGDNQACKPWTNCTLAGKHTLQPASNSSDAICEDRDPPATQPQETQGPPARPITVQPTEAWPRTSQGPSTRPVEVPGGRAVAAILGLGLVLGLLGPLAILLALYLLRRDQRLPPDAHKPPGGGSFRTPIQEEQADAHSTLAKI
Experiment: FACS; cells not named on the sheet, HuT78/OX40 cells as in Example 5
ENDPOINT: Top(MFI)
Just the number in MFI, nothing appended.

The recorded Top(MFI) for 445-2(M48I)-1 (antibody, human IgG1, V domains shown) VH: QVQLVQSGAEVKKPGSSVKVSCKASGYKFTSYIIHWVRQAPGQGLEWIGYINPYNDGTRYNQKFQGRVTLTSDKSTSTAYMELSSLRSEDTAVYYCARGYYGSSYAMDYWGQGTTVTVSS VL: DIQMTQSPSSLSASVGDRVTITCSASQGISNYLNWYQQKPGKAIKLLIYDTSTLYSGVPSRFSGSGSGTDYTLTISSLQPEDFATYYCQQYSKLPYTFGGGTKVEIK is 480
